The compounds listed here are annotated with their growth.
- Tested on: PC-3 prostate
- protocolText: NCI-60 one-dose screen, 48 h (100 = growth as untreated, 0 = no growth, -100 = all killed)
- assaySetup: 10 µM unless noted
The panel holds about 83,000 compounds, 20% with a hit somewhere; the sample as a whole holds those more often.
The reply should contain only the number, in %.

Sure, the documented growth for COCCn1cc(-c2csc(-c3cn(C)c4ccc(F)cc34)n2)c2cccnc21 is 46.5

Entry N#Cc1ccccc1OCC(=O)Nc1nc2c(s1)COc1ccccc1-2 — recorded growth = 102

The compound identified as O=C(N=Nc1c(O)[nH]c2ccccc12)Nc1ccc(Br)cc1 registered its growth at 91.9

In plain terms, COc1ccc(S(=O)(=O)Nc2cc(Sc3cccc4cccnc34)c(O)c3ccccc23)cc1 has a documented growth of 26.3

New cases:
According to the records, this compound COc1ccc(-c2ccc(-c3ccc(C(=N)N)cn3)o2)cc1Cl displays growth of 46.1

###

- Tested on: MOLT-4 leukemia
- protocolText: NCI-60 one-dose screen, 48 h
- assaySetup: 10 µM unless noted
- Description: Growth inhibition of the MOLT-4 human tumor cell line is measured as a screen for anti-cancer activity. Cells are grown in 96 well plates and exposed to the test compound for 48 hours. Compounds are tested at a single concentration, which is 10^-5 M for most compounds. The reported endpoint is percent growth (GI% or GIPRCNT), where numbers from 0 - 100% represent growth inhibition, and numbers from -100% - 0 represent cell death. For example, a value of 40 represents 60% growth inhibition. […]
About 83,000 compounds went through this panel and 20% of them were active in at least one assay; those are over-represented in the sample as a whole. The source made the active and inactive calls. How the source made its calls: active means growth percent below 10; inactive means the rest.
Respond only with the outcome that fits, drawn from active, inactive

Examples from the recorded data:
What classification did CC1(C)C(N)=Nc2cc(OCCCN3Cc4ccc(OCCc5cn(CC(=O)N6CCC(CCN7CCCC7)CC6)nn5)cc4C3)c(OCC3CC3)cc21 end up with in this test?
inactive

Kindly provide the recorded test outcome for the following compound: Cc1ccc(C(=O)N(CCCN)[C@@H](c2nc3cc(Cl)ccc3c(=O)n2Cc2ccccc2)C(C)C)cc1
active

Tell me the recorded outcome of this test for COc1c(F)cc(-n2c(C(=O)N3CC(F)C3)cc3cccnc32)cc1F .
inactive

Name the outcome recorded for Nc1[nH]nc(Nc2ccccc2)c1-c1nc2ccccc2s1 in the assay.
active

***
Tell me the assay call for CC(C)(C)CC(N)=O please.
inactive

How was Nc1nc(CSc2n[nH]c(N)n2)nc(Nc2ccccc2)n1 classified in this test?
inactive

Test call for this compound, please: COc1cc(CO)cc2cc3ccccc3nc12
inactive

Each compound tested received a call. Report the one for C=CCNC(=O)Cc1c(-c2ccc(OC)cc2)oc2c(OC)c3c(c(OC)c12)OCO3 .
inactive

Look up the recorded call for Cc1c(C(=O)OCCCCOC(=O)c2c(C)n(C)c3scc[n+]23)[n+]2ccsc2n1C in this test.
inactive

Fill in: this test's call for CCC(=C(c1ccc(OCCCN(C)C)cc1)c1ccc(OCCCN(C)C)cc1)c1ccc(Cl)cc1 is ___
active

###

Reported growth values for the following compounds.
- Tested on: NCI-H226 lung
- protocolText: NCI-60 one-dose screen, 48 h (100 = growth as untreated, 0 = no growth, -100 = all killed)
- assaySetup: 10 µM unless noted
- Method: Growth inhibition of the NCI-H226 human Non-Small Cell Lung tumor cell line is measured as a screen for anti-cancer activity. Cells are grown in 96 well plates and exposed to the test compound for 48 hours. Compounds are tested at a single concentration, which is 10^-5 M for most compounds. The reported endpoint is percent growth (GI% or GIPRCNT), where numbers from 0 - 100% represent growth inhibition, and numbers from -100% - 0 represent cell death. […]
Compounds without any hit were thinned out: in the full panel of roughly 83,000, 20% have a hit. Calls of active or inactive are those of the source. The calls were made as follows: active = growth percent below 10; inactive = the rest.

Record excerpt, results attached:
Looking up Cc1ccc(Cl)cc1N1CCN(C(=O)[C@@H]2C[C@@H]2c2ccc(F)cc2)CC1 , I see its growth listed as 73.6% (inactive)

growth measured on COc1cc2ncnc(Nc3ccc(F)c(Cl)c3)c2cc1OCC(=O)N1CCCCC1 = 86.8% (inactive)

Further cases:
Quick note, growth for Cc1c(C(=O)OCCCCOC(=O)c2c(C)n(C)c3scc[n+]23)[n+]2ccsc2n1C landed at 91.1% (inactive)

Noted for CC[C@]1(O)CC2CN(CCc3c([nH]c4ccccc34)C(C(=O)OC)(c3cc4c(cc3OC)N(C=O)[C@H]3[C@@](O)(C(=O)OC)[C@H](OC(C)=O)[C@]5(CC)[C@@H]6C[C@@H]6CN6CC[C@]43[C@@H]65)C2)C1 (some centres undefined) : its growth reads 19.3% (inactive)

###

- System: MOLT-4 leukemia
- protocolText: NCI-60 one-dose screen, 48 h (100 = growth as untreated, 0 = no growth, -100 = all killed)
- assaySetup: 10 µM unless noted
About 83,000 compounds went through this panel and 20% of them were active in at least one assay; those are over-represented in the sample as a whole.
measuredEndpoint: growth (%)
Field format: number, assumed %, no unit text.

Kindly note: MOLT-4 leukemia, Cc1nc(-n2[nH]c(=O)ccc2=O)sc1N=Nc1ccccc1 , growth value reported: 99.4

Field growth (system: MOLT-4 leukemia) for entry OCCN1CCN(c2cc(-c3cccc(OC(F)(F)F)c3)nc3ccc(N4CCCC4)cc23)CC1 = 11.2

# lookup: CCCCn1c(C(=O)c2c[nH]c3ccccc23)n[nH]c1=S on MOLT-4 leukemia, growth = 103

Note to self: growth of CCN(CC)CC(=O)Nc1ccc2ncnc(Nc3ccc(Oc4cccc(F)c4)c(Cl)c3)c2c1 with MOLT-4 leukemia was 41.8

MOLT-4 leukemia growth of COc1ccc(/C=C2/C(=O)N=C3N2NC(c2ccccc2)=CN3c2ccccc2)cc1 is 106

Continuing:
Fill in: MOLT-4 leukemia growth for CC/C=C\C/C=C\C[C@H](O)C/C=C1/C(=O)C=C[C@@H]1C/C=C\CCCC(=O)OC = -10.5

The reported growth value, MOLT-4 leukemia, for C/C=C(\C)C(=O)N[C@H]1CC[C@]2(C)C3CC[C@@]4(C)C(CC[C@@H]4C(C)N(C)C)C3CCC2[C@H]1OC(C)=O (stereo not given in full) reads 11.2

// molecule COC(=O)[C@H]1Cc2c([nH]c3ccccc23)[C@@H](c2cccs2)N1 , assay MOLT-4 leukemia, growth value: 103

Value (growth, MOLT-4 leukemia) for record COc1ccc(/C=C(\C#N)c2cc3ccccc3[nH]2)cc1 = 24.4

Given the molecule N#Cc1ccccc1OCC(=O)Nc1nc2c(s1)COc1ccccc1-2 and test system MOLT-4 leukemia, the measured growth is 77.5

Tested on MOLT-4 leukemia: CC[C@]1(O)CC2CN(CCc3c([nH]c4ccccc34)C(C(=O)OC)(c3cc4c(cc3OC)N(C=O)[C@H]3[C@@](O)(C(=O)OC)[C@H](OC(C)=O)[C@]5(CC)[C@@H]6C[C@@H]6CN6CC[C@]43[C@@H]65)C2)C1 (stereo not given in full) . Observed growth: 13.1

###

- System: 786-0 renal
- protocolText: NCI-60 one-dose screen, 48 h (100 = growth as untreated, 0 = no growth, -100 = all killed)
- assaySetup: 10 µM unless noted
This is part of a sample that, as a whole, favours compounds with a hit. Of some 83,000 tested, about 20% had one in any assay.
Listed below: growth values for each entry.
Kindly answer with a numeric value in %, unit omitted.

Solved cases below.
The compound listed as CC/C=C\C/C=C\C[C@H](O)C/C=C1/C(=O)C=C[C@@H]1C/C=C\CCCC(=O)OC shows growth equal to -60.6

GET /value?item= Cc1ccc(-c2nc3nc(-c4ccc(F)cc4)nc(N4CCCNCC4)c3o2)cc1 &field=growth returns -86.4

***
Please fill in: growth reported for O=C([C@H]1C[C@H]1c1ccc(S(F)(F)(F)(F)F)cc1)N1CCN(c2cc(Cl)ccc2C(F)(F)F)CC1 = 89.3

Entry O=C(NNc1ccccc1)C1CCCN1 (stereo unspecified) ; growth = 89.2

The value of growth measured for the compound O=C(CCl)n1nnnc1Cc1ccccc1 turned out to be 95

Per the record, Cc1ccc(NC(=O)N/C(N)=N/c2nc(=O)c3ccccc3s2)cc1 has growth of 98.6

###

growth reference
- Tested on: M14 melanoma
- protocolText: NCI-60 one-dose screen, 48 h (100 = growth as untreated, 0 = no growth, -100 = all killed)
- assaySetup: 10 µM unless noted
About 83,000 compounds went through this panel and 20% of them were active in at least one assay; those are over-represented in the sample as a whole.
Express your answer in %, writing the number without its unit.

Solved cases (3 shown):
Param item: COc1ccc(/C=N/NC(=O)CN2CCN(c3cc4c(cc3F)c(=O)c(C(=O)O)cn4C3CC3)CC2)cc1O ; param system: M14 melanoma; output growth: 101

N=C(N)c1ccc(-c2ccc(-c3ccc(F)cc3)s2)nc1 on M14 melanoma gives growth = 76.1

Lab note: molecule Cc1ccc(/C=C(\C#N)c2cc3ccccc3[nH]2)cc1 tested on M14 melanoma; recorded growth was 31.5

More entries:
Considering COc1ccc(/C=C/C(=O)c2cc3c(N)c(C(=O)Nc4ccccc4)sc3nc2C)cc1 , its growth with M14 melanoma was recorded as 6.3

Item Cc1cc(N2CCCCC2)nc(NCc2cc(Nc3ccnc4cc(Cl)ccc34)ccc2F)n1 was tested on M14 melanoma; the reported growth is -67.8

Record COc1cc(Cl)cc(-c2nn(C(=O)NS(=O)(=O)c3ccc(Cl)cc3)cc2-c2ccncc2)c1 / M14 melanoma, growth recorded as 72.7

Known value: M14 melanoma growth of the molecule COc1ccc2c(c1)c(-c1nc(-c3c[nH]c4c(Cl)nccc34)cs1)cn2C equals 90.8

Note to self: growth of COc1cccc(C2C(C#N)=C(N)Oc3cc(OCCCCCC[P+](c4ccccc4)(c4ccccc4)c4ccccc4)ccc32)c1 (centres undefined) with M14 melanoma was -49.7

Here O=C1N=c2ccccc2=C1c1sc(=S)n(C2CC(=O)N(c3ccc(Cl)cc3)C2=O)c1O (centres undefined) was tested on M14 melanoma, and its growth came to 98.7
